# System Tested: T1, huNav1.7α (human Nav1.7 alpha subunit, expressed without β subunits) (human, UniProt Q15858 1-1988)
# T1 construct: also called HEK293 human Nav1.7α; HEKa Nav1.7α
# Experiment Description: binding FACS, HEKa cells
Reported Property: pEC50
Schema: pEC50 number; meaning minus log10 of the concentration expressed in molar units.

Binder	pEC50
F0103387G05 (parental)-FLAG-HIS6 (VHH) VHH: EVQLVESGGGLVQAGGSLRLSCDASGRILRIGYMRWHRQGAGKQREFVARITDDSATDYADSVKGRFTISRDNAKNTVYLQMNNLNPEDTAVYYCEALVTASVRGGSIHSGTYWGRGTLVTVSS	8.51
F010301645 (VHH, also called F0103387G05(L11V, A14P, G40A, N82bS, N83R, V89L, R105Q)) VHH: EVQLVESGGGVVQPGGSLRLSCDASGRILRIGYMRWHRQAAGKQREFVARITDDSATDYADSVKGRFTISRDNAKNTVYLQMNSLRPEDTALYYCEALVTASVRGGSIHSGTYWGQGTLVTVSS	8.33
F010301646 (VHH, also called F0103387G05(L11V, A14P, A41P, N82bS, N83R, V89L, R105Q)) VHH: EVQLVESGGGVVQPGGSLRLSCDASGRILRIGYMRWHRQGPGKQREFVARITDDSATDYADSVKGRFTISRDNAKNTVYLQMNSLRPEDTALYYCEALVTASVRGGSIHSGTYWGQGTLVTVSS	8.36

Prompt: Reported pEC50, binder F010301647 (VHH, also called F0103387G05(L11V, A14P, F47L, N82bS, N83R, V89L, R105Q); F47L) VHH: EVQLVESGGGVVQPGGSLRLSCDASGRILRIGYMRWHRQGAGKQRELVARITDDSATDYADSVKGRFTISRDNAKNTVYLQMNSLRPEDTALYYCEALVTASVRGGSIHSGTYWGQGTLVTVSS : ____
Response: 8.10

Prompt: Same again, this time with F010301849 (VHH, also called F0103387G05(L11V, A14P, D23A, G40A, A41P, D58G, N82bS, N83R, V89L, R105Q)) VHH: EVQLVESGGGVVQPGGSLRLSCAASGRILRIGYMRWHRQAPGKQREFVARITDDSATGYADSVKGRFTISRDNAKNTVYLQMNSLRPEDTALYYCEALVTASVRGGSIHSGTYWGQGTLVTVSS
Response: 8.52

Prompt: Same again, this time with F010301563 (VHH, also called F0103387G05(D23A, D58G)) VHH: EVQLVESGGGLVQAGGSLRLSCAASGRILRIGYMRWHRQGAGKQREFVARITDDSATGYADSVKGRFTISRDNAKNTVYLQMNNLNPEDTAVYYCEALVTASVRGGSIHSGTYWGRGTLVTVSS
Response: 8.82

Prompt: Same again, this time with F010302309 (VHH, also called F0103387G05(L11V, A14P, D23A, H37Y, G40A, A41P, D58G, N73Q, N82bS, N83R, V89L, R105Q)) VHH: EVQLVESGGGVVQPGGSLRLSCAASGRILRIGYMRWYRQAPGKQREFVARITDDSATGYADSVKGRFTISRDQAKNTVYLQMNSLRPEDTALYYCEALVTASVRGGSIHSGTYWGQGTLVTVSS
Response: 8.66

Prompt: Same again, this time with F010302391 (VHH, also called F0103387G05(L11V, A14P, D23A, H37Y, G40A, A41P, D53G, D54G, D58G, N82bS, N83R, V89L, R105Q)-FLAG3-HIS6) VHH: EVQLVESGGGVVQPGGSLRLSCAASGRILRIGYMRWYRQAPGKQREFVARITGGSATGYADSVKGRFTISRDNAKNTVYLQMNSLRPEDTALYYCEALVTASVRGGSIHSGTYWGQGTLVTVSS
Response: 8.72

Prompt: Same again, this time with F010301648 (VHH, also called F0103387G05(L11V, A14P, N82bS, N83R, V89L, E93N, R105Q); E93N) VHH: EVQLVESGGGVVQPGGSLRLSCDASGRILRIGYMRWHRQGAGKQREFVARITDDSATDYADSVKGRFTISRDNAKNTVYLQMNSLRPEDTALYYCNALVTASVRGGSIHSGTYWGQGTLVTVSS
Response: 7.05

Prompt: Same again, this time with F010302307 (VHH, also called F0103387G05(L11V, A14P, D23A, H37Y, G40A, A41P, D58G, N73A, N82bS, N83R, V89L, R105Q)) VHH: EVQLVESGGGVVQPGGSLRLSCAASGRILRIGYMRWYRQAPGKQREFVARITDDSATGYADSVKGRFTISRDAAKNTVYLQMNSLRPEDTALYYCEALVTASVRGGSIHSGTYWGQGTLVTVSS
Response: 8.55

Prompt: Same again, this time with F010301556 (VHH, also called F0103387G05(D23A, D53G, D54G, D58G)) VHH: EVQLVESGGGLVQAGGSLRLSCAASGRILRIGYMRWHRQGAGKQREFVARITGGSATGYADSVKGRFTISRDNAKNTVYLQMNNLNPEDTAVYYCEALVTASVRGGSIHSGTYWGRGTLVTVSS
Response: 8.74

Prompt: Same again, this time with F010301643 (VHH, also called F0103387G05(L11V, A14P, D23A, N82bS, N83R, V89L, R105Q)) VHH: EVQLVESGGGVVQPGGSLRLSCAASGRILRIGYMRWHRQGAGKQREFVARITDDSATDYADSVKGRFTISRDNAKNTVYLQMNSLRPEDTALYYCEALVTASVRGGSIHSGTYWGQGTLVTVSS
Response: 8.39
